Target: HLA-DRB1*1501 (Homo sapiens, UniProt P01903+P01911)
Construct: purchased
Test: biochemical
Type: binding
Settings: binding inhibition assay; NB = non-binder (no dose-dependent inhibition); read-out: DRB1*1501 IC50
Where a SMILES comes first, the peptide text is derived from it.
// returns No unless IC50 is strictly below 200 nM, in which case Yes

# molecule, class label
records = [
    ("CSCC[C@H](NC(=O)[C@@H](NC(=O)[C@H](Cc1c[nH]cn1)NC(=O)[C@H](Cc1ccccc1)NC(=O)CNC(=O)[C@H](Cc1c[nH]cn1)NC(=O)[C@H](CCCCN)NC(C)=O)[C@@H](C)O)C(=O)N[C@@H](CC(N)=O)C(=O)N[C@@H](CC(N)=O)C(=O)N[C@@H](CC(C)C)C(=O)N[C@@H](Cc1c[nH]cn1)C(=O)NCC(=O)N[C@@H](CC(=O)O)C(=O)NCC(=O)N[C@H](C(=O)N[C@@H](CO)C(=O)N[C@@H](CCC(=O)O)C(N)=O)C(C)C [EBA175_016] (Ac-KHGFHTMNNLHGDGVSE-NH2)", "No"),
    ("CC[C@H](C)[C@H](NC(=O)[C@H](Cc1ccc(O)cc1)NC(=O)[C@@H]1CCCN1C(=O)[C@H](CC(N)=O)NC(=O)[C@H](CC(=O)O)NC(C)=O)C(=O)N[C@@H](CO)C(=O)N[C@@H](CCCCN)C(=O)N[C@@H](Cc1ccc(O)cc1)C(=O)NCC(=O)N[C@@H](CC(N)=O)C(=O)N[C@@H](CCCCN)C(=O)N[C@@H](CC(C)C)C(=O)N[C@@H](CS)C(=O)N[C@@H](CCC(=O)O)C(=O)N[C@@H](CCCNC(=N)N)C(N)=O [RIPR_014] (Ac-DNPYISKYGNKLCER-NH2)", "Yes"),
    ("CC(=O)N[C@@H](Cc1ccccc1)C(=O)N[C@@H](CCC(N)=O)C(=O)N[C@@H](CC(N)=O)C(=O)N[C@@H](Cc1ccc(O)cc1)C(=O)N[C@H](C(=O)N[C@@H](Cc1ccc(O)cc1)C(=O)N[C@@H](CC(C)C)C(=O)N[C@@H](CO)C(=O)N[C@@H](CCCCN)C(=O)N[C@@H](CC(N)=O)C(=O)N[C@H](C(=O)N[C@H](C(=O)N[C@@H](CC(=O)O)C(=O)N[C@@H](CC(N)=O)C(=O)N[C@@H](Cc1c[nH]c2ccccc12)C(=O)N[C@@H](CCC(=O)O)C(N)=O)C(C)C)C(C)C)[C@@H](C)O [AMA1_004] (Ac-FQNYTYLSKNVVDNWE-NH2)", "No"),
    ("CC[C@H](C)[C@H](NC(=O)[C@H](Cc1ccc(O)cc1)NC(=O)[C@@H](NC(=O)[C@H](Cc1ccc(O)cc1)NC(=O)[C@H](CO)NC(=O)CNC(=O)[C@H](CCSC)NC(=O)[C@H](CCCCN)NC(=O)[C@H](CCCCN)NC(=O)[C@H](CC(N)=O)NC(=O)[C@H](CC(C)C)NC(=O)[C@H](CC(N)=O)NC(=O)[C@@H](NC(=O)[C@H](CC(C)C)NC(=O)[C@H](CC(C)C)NC(=O)[C@H](CC(C)C)NC(=O)[C@H](CCC(=O)O)NC(=O)[C@@H](N)CO)[C@@H](C)O)[C@@H](C)CC)C(N)=O [RH5_010B] (H-SELLLTNLNKKMGSYIYI-NH2)", "No"),
    ("CC[C@H](C)[C@H](NC(=O)[C@H](CCC(=O)O)NC(=O)[C@@H](NC(=O)[C@H](CCCCN)NC(=O)[C@H](CCCCN)NC(C)=O)C(C)C)C(=O)N[C@@H](Cc1ccccc1)C(=O)N[C@@H](CCCNC(=N)N)C(=O)N[C@@H](CO)C(=O)N[C@@H](CCCNC(=N)N)C(=O)N[C@@H](Cc1ccccc1)C(=O)N[C@@H](CO)C(=O)N[C@@H](CO)C(=O)N[C@@H](CCCCN)C(=O)N[C@@H](CC(C)C)C(=O)N[C@@H](CCC(N)=O)C(=O)N[C@@H](CS)C(=O)N[C@@H](CCC(N)=O)C(N)=O [RIPR_011] (Ac-KKVEIFRSRFSSKLQCQ-NH2)", "Yes"),
    ("CC[C@H](C)[C@H](NC(=O)[C@H](CC(N)=O)NC(=O)[C@H](CCC(N)=O)NC(=O)[C@H](CC(N)=O)NC(=O)[C@H](CC(N)=O)NC(=O)[C@H](Cc1ccccc1)NC(=O)[C@@H](NC(=O)[C@H](CS)NC(=O)[C@H](CC(C)C)NC(=O)[C@H](Cc1ccc(O)cc1)NC(=O)[C@H](CC(=O)O)NC(=O)[C@@H](N)Cc1ccc(O)cc1)C(C)C)C(=O)N[C@H](C(=O)N[C@@H](CO)C(=O)N[C@@H](CC(=O)O)C(=O)N[C@@H](CCCCN)C(=O)N[C@@H](CC(N)=O)C(N)=O)[C@@H](C)O [RIPR_007] (H-YDYLCVFNNQNITSDKN-NH2)", "Yes"),
    ("CC[C@H](C)[C@H](NC(=O)[C@H](CC(=O)O)NC(=O)[C@H](CCC(=O)O)NC(=O)[C@H](Cc1ccc(O)cc1)NC(C)=O)C(=O)N[C@H](C(=O)N[C@@H](CC(C)C)C(=O)N[C@@H](CCCCN)C(=O)N[C@@H](CO)C(=O)N[C@@H](Cc1c[nH]cn1)C(=O)N[C@@H](CCSC)C(=O)N[C@@H](CC(N)=O)C(=O)N[C@@H](CCCNC(=N)N)C(=O)N[C@@H](CCC(=O)O)C(=O)N[C@@H](CO)C(=O)N[C@@H](CC(=O)O)C(=O)N[C@@H](CC(=O)O)C(N)=O)C(C)C [EBA175_015] (Ac-YEDIVLKSHMNRESDD-NH2)", "No"),
]

* * *

Quick reference: IC50 of the listed items.
Target: HLA-DRB1*0801 (Homo sapiens, UniProt P01903+P01911, A100R/A103L/A169T/D86S/F76Y/H45Y/I96F/K41T/L162R/M171V/P40S/Q125H/Q178H/Q39Y/Q99D/R218S/R42G/S66Y/V115G/W38E)
Test: biochemical
Format: binding
Conditions: binding inhibition assay; NB = non-binder (no dose-dependent inhibition); read-out: DRB1*0801 IC50
Where a SMILES comes first, the peptide text is derived from it.

# compound, unit tag, IC50
rows = [
    ("CSCC[C@H](N)C(=O)N[C@@H](CCCNC(=N)N)C(=O)N[C@@H](CCCCN)C(=O)N[C@@H](CC(C)C)C(=O)N[C@@H](Cc1ccc(O)cc1)C(=O)N[C@@H](CS)C(=O)N[C@H](C(=O)N[C@@H](CC(C)C)C(=O)N[C@@H](CC(C)C)C(=O)N[C@@H](CC(C)C)C(=O)N[C@@H](CO)C(=O)N[C@@H](C)C(=O)N[C@@H](Cc1ccccc1)C(=O)N[C@@H](CCC(=O)O)C(=O)N[C@@H](Cc1ccccc1)C(=O)N[C@H](C(=O)N[C@@H](Cc1ccc(O)cc1)C(N)=O)[C@@H](C)O)C(C)C [AMA1_001] (H-MRKLYCVLLLSAFEFTY-NH2)", "µM", 17.3),
    ("CC[C@H](C)[C@H](NC(=O)[C@H](Cc1ccccc1)NC(=O)[C@H](Cc1c[nH]cn1)NC(=O)[C@H](CC(=O)O)NC(C)=O)C(=O)N[C@@H](CCC(=O)O)C(=O)N[C@@H](C)C(=O)N[C@@H](CO)C(=O)N[C@@H](CCCCN)C(=O)N[C@@H](CCCCN)C(=O)N[C@@H](CCC(=O)O)C(=O)N[C@@H](CO)C(=O)N[C@@H](CCC(N)=O)C(=O)N[C@@H](CC(C)C)C(=O)N[C@@H](CC(C)C)C(N)=O [EBA175_006] (Ac-DHFIEASKKESQLL-NH2)", "µM", 1.76),
    ("CC[C@H](C)[C@H](NC(=O)[C@H](Cc1ccc(O)cc1)NC(=O)[C@@H]1CCCN1C(=O)[C@H](CC(N)=O)NC(=O)[C@H](CC(=O)O)NC(C)=O)C(=O)N[C@@H](CO)C(=O)N[C@@H](CCCCN)C(=O)N[C@@H](Cc1ccc(O)cc1)C(=O)NCC(=O)N[C@@H](CC(N)=O)C(=O)N[C@@H](CCCCN)C(=O)N[C@@H](CC(C)C)C(=O)N[C@@H](CS)C(=O)N[C@@H](CCC(=O)O)C(=O)N[C@@H](CCCNC(=N)N)C(N)=O [RIPR_014] (Ac-DNPYISKYGNKLCER-NH2)", "µM", 95),
    ("CC[C@H](C)[C@H](NC(=O)[C@H](CS)NC(=O)[C@H](CCC(=O)O)NC(=O)CNC(=O)[C@H](CCCNC(=N)N)NC(=O)[C@H](CO)NC(=O)[C@H](CO)NC(=O)[C@H](CCCNC(=N)N)NC(=O)[C@H](Cc1ccc(O)cc1)NC(=O)[C@H](Cc1ccc(O)cc1)NC(=O)[C@H](Cc1c[nH]cn1)NC(=O)[C@H](CCC(=O)O)NC(=O)[C@H](CCCCN)NC(C)=O)C(=O)N[C@@H](CC(C)C)C(=O)N[C@@H](CC(N)=O)C(=O)N[C@@H](CC(=O)O)C(N)=O [RIPR_017] (Ac-KEHYYRSSRGECILND-NH2)", "µM", 6.44),
]
